Provenance of the data: patent US20090304692A1

Target: Human mTOR (FLAG-TOR) (Homo sapiens, UniProt P42345)
Sequence (P42345 1360-2549 limits assumed): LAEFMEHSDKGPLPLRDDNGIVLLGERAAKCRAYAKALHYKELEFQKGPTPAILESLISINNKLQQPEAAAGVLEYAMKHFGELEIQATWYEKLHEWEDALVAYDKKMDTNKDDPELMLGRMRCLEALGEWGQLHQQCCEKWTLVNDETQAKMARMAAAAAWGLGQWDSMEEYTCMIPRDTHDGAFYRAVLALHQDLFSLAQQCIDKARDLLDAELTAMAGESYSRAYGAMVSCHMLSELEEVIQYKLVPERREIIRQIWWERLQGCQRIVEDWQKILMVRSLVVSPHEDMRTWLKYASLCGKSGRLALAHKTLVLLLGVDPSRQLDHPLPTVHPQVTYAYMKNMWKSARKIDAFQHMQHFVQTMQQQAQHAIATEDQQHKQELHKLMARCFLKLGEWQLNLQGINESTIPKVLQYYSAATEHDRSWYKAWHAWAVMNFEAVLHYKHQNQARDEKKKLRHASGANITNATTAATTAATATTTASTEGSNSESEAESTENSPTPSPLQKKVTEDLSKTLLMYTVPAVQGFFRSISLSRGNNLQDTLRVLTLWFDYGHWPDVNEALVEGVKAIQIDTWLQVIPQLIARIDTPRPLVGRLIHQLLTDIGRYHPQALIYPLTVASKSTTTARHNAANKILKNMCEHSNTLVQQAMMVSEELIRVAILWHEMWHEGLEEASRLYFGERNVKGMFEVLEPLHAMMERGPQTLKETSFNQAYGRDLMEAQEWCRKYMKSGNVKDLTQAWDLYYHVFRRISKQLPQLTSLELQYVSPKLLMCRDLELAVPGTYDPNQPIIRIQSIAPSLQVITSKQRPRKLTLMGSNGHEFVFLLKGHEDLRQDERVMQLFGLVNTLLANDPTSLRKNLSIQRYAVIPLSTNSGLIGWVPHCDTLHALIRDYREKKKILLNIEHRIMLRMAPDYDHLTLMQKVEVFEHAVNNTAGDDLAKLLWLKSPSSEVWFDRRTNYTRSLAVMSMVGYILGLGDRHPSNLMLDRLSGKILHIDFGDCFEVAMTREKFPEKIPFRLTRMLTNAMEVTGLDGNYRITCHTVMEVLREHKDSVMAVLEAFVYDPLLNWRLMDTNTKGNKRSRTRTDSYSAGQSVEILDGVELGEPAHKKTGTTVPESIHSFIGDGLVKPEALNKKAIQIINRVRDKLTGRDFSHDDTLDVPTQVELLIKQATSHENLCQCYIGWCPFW
Assay: mTOR kinase assay (DELFIA format, purified enzyme)
Format: biochemical
Settings: read-out: IC50 mTOR
pIC50: −log10 of the molar value.
Each entry gets 0 if its pIC50 stays under 8, and 1 if its pIC50 is 8 or above.

- CNCCNC(=O)c1ccc(NC(=O)Nc2ccc(-c3nc(C4CCOCC4)nc(N4C5CCC4COC5)n3)cc2)cc1 [Example 458]: 1
- CN(C)CCN(C)C(=O)c1ccc(NC(=O)Nc2ccc(-c3nc(N4CCOCC4)nc(N4C5CCCC4COC5)n3)cc2)cc1 [Example 795]: 1
- CN1CCN(C(=O)c2ccc(NC(=O)Nc3ccc(-c4nc(N5CCCC5)nc(N5CCOCC5)n4)cc3)cc2)CC1 [Example 607]: 0
- CN1CCN(c2ccc(NC(=O)Nc3ccc(-c4nc(N5CC[S+]([O-])CC5)nc(N5C6CCC5COC6)n4)cc3)cc2)CC1 [Example 426]: 0
- O=C(Nc1ccc(C(=O)N2CCSCC2)cc1)Nc1ccc(-c2nc(N3CCOCC3)nc(N3C4CCC3COC4)n2)cc1 [Example 762]: 1

###

Molecular target: UniProt P48736
Sequence (P48736 whole entry, species assumed): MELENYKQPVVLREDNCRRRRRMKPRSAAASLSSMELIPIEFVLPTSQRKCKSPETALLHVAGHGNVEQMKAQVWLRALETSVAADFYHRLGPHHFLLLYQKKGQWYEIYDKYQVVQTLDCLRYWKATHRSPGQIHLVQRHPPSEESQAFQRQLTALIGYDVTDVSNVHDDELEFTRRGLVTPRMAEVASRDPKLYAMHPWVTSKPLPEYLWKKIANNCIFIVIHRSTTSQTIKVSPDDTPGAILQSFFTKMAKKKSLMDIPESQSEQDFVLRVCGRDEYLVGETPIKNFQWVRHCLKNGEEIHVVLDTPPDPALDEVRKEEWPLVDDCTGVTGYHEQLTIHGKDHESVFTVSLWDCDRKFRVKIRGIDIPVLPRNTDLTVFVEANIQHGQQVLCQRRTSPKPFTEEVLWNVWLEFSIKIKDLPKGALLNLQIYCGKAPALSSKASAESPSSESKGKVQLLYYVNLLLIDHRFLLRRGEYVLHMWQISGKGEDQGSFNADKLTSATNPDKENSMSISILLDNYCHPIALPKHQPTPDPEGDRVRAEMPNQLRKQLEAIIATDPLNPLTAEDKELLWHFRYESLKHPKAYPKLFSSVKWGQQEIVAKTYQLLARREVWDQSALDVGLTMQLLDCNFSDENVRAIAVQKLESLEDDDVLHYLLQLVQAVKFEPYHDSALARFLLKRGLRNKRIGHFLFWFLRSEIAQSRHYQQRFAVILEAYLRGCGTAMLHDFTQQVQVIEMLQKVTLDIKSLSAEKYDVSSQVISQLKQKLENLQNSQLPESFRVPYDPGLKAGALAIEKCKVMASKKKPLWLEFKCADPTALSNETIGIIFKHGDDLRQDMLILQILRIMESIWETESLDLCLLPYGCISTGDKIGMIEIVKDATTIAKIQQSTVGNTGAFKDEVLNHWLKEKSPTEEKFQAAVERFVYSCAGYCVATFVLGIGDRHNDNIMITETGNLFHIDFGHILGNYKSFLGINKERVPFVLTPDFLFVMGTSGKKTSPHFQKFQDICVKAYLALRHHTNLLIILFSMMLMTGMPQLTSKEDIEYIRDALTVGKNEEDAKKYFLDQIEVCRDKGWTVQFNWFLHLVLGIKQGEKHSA
Assay: PI3K-gamma fluorescence polarization assay
Conditions: read-out: IC50 PI3Kγ; listed as 714
property_name: IC50 (µM)

* COCCOc1nc(-c2ccc(NC(=O)Nc3ccncc3)cc2)nc(N2CCOCC2)n1 | 0.069

###

Target: PI3K-α (Homo sapiens)
Sequence (P42336 whole entry, species assumed): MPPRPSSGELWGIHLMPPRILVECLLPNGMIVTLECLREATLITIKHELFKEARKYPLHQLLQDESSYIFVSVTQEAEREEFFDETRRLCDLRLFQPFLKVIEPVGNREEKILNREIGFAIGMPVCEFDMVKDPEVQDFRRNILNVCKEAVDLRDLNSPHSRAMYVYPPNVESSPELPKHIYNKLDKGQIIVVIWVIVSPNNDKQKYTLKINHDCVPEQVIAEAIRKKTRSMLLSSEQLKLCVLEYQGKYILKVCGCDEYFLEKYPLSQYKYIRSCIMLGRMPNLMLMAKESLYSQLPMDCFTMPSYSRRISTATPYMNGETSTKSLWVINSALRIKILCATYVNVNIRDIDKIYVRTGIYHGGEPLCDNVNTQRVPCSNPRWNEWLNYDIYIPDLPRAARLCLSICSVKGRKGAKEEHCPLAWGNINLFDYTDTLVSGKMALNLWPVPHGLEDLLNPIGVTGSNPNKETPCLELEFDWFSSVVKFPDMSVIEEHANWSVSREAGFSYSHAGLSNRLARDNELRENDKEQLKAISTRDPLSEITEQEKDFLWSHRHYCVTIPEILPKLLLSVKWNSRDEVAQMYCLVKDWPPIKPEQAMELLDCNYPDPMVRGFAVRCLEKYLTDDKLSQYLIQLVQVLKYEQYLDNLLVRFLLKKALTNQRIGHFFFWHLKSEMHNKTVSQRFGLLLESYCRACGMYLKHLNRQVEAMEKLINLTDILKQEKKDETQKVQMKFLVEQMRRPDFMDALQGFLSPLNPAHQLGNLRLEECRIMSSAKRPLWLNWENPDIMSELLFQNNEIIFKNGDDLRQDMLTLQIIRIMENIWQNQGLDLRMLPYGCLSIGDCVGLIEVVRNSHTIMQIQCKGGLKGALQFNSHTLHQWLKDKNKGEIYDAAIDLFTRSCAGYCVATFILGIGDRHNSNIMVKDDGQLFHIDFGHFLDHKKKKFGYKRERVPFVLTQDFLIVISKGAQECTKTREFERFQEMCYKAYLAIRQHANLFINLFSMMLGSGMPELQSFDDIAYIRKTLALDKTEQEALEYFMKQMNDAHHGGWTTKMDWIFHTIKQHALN
Sequence (P27986 whole entry partner, species assumed): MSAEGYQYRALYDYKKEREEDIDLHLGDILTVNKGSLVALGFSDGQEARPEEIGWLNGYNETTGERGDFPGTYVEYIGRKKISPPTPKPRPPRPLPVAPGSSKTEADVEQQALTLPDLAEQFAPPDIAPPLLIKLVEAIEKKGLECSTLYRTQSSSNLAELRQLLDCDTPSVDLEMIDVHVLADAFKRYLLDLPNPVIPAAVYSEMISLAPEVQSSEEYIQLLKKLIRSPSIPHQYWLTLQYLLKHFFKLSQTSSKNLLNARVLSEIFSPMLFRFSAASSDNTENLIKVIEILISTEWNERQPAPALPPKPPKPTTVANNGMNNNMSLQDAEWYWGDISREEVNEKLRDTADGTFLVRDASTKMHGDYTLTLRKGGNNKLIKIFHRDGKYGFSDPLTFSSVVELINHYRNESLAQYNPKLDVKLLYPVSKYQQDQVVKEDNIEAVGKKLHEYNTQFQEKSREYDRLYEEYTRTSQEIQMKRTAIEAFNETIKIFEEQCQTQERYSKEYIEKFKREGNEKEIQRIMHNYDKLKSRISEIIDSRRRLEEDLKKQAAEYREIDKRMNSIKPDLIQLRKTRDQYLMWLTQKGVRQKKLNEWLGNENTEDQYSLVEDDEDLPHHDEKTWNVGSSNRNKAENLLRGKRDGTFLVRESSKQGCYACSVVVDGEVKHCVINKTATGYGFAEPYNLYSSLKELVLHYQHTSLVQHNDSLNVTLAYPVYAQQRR
Assay: PI3K-alpha fluorescence polarization assay
Conditions: read-out: IC50 PI3Kα
property_name: IC50

- O=C(Nc1ccc(F)cc1)Nc1ccc(-c2nc(N3CCOCC3)nc(N3C4CCC3COC4)n2)cc1 [Example 37]: 39 nM
- O=C(Nc1ccncc1)Nc1ccc(-c2nc(CCC3OCCCO3)nc(N3CCOCC3)n2)cc1 [Example 267]: 17 nM
- C[C@@H]1COCCN1c1nc(-c2ccc(NC(=O)Nc3cccnc3)cc2)nc(N2CCOC[C@H]2C)n1 [Example 398]: 644 nM
- CCN1CCN(C(=O)c2ccc(NC(=O)Nc3ccc(-c4nc(N5CCOCC5)nc(N5CC6CCC5CO6)n4)cc3)cc2)CC1 (stereo not drawn) [Example 812]: 2.8 nM
- CCCCN1CCN(C(=O)c2ccc(NC(=O)Nc3ccc(-c4nc(N5CCOCC5)nc(N5CCCN(C(C)C)CC5)n4)cc3)cc2)CC1 [Example 665]: 71 nM
- C[C@@H]1COCCN1c1nc(-c2ccc(NC(=O)Nc3ccncc3)cc2)nc(N2C3CCC2COC3)n1 [Example 416]: 446 nM
- CN(C)Cc1ccc(NC(=O)Nc2ccc(-c3nc(C4CCOCC4)nc(N4C5CCC4COC5)n3)cc2)cc1 [Example 409]: 856 nM
- O=C(Nc1ccncc1)Nc1ccc(-c2nc(OC3CCOCC3)nc(N3CCOCC3)n2)cc1 [Example 59]: 3 nM
- COCCNC(=O)c1ccc(NC(=O)Nc2ccc(-c3nc(N4CCOCC4)nc(N4C5CCCC4COC5)n3)cc2)cc1 [Example 797]: 11.5 nM
- CC(C)Nc1nc(-c2ccc(NC(=O)Nc3ccc(CN4CCCC4)cc3)cc2)nc(N2C3CCC2COC3)n1 [Example 383]: 2980 nM
- COC(=O)c1ccc(NC(=O)Nc2ccc(-c3nc(N4CCOCC4)nc(N4C5CCC4COC5)n3)cc2)cc1 [Example 693]: 69 nM
- O=C(Nc1ccncc1)Nc1ccc(-c2nc(N3CCOCC3)nc(N3CC4CCC(C3)O4)n2)cc1 [Example 48]: 6 nM
- COCCNc1nc(-c2ccc(NC(=O)Nc3cccnc3)cc2)nc(N2CC3CCC(C2)O3)n1 [Example 258]: 403 nM
- O=C(Nc1ccncc1)Nc1ccc(-c2nc(-c3cccs3)nc(N3CCOCC3)n2)cc1 [Example 557]: 18 nM
- CN(C)CCCc1nc(-c2ccc(NC(=O)Nc3ccncc3)cc2)nc(N2CCOCC2)n1 [Example 274]: 34 nM

###

Target: PI3K-α (Homo sapiens)
Test: PI3K-alpha fluorescence polarization assay
Details: read-out: IC50 PI3Kα
property_name: IC50 (nM)

• C[C@H]1COCCN1c1nc(-c2ccc(NC(=O)Nc3ccncc3)cc2)nc(N2CCOCC2)n1 = 10
• COC(=O)c1ccc(NC(=O)Nc2ccc(-c3nc(N4CCOCC4)nc(N4C5COCC4COC5)n3)cc2)cc1 = 30.5
• CC(C)Nc1nc(-c2ccc(NC(=O)Nc3ccc(N4CCN(C)CC4)cc3)cc2)nc(N2CC3CCC(C2)O3)n1 = 253
• O=C(Nc1ccccc1)Nc1ccc(-c2nc(N3CCOCC3)nc(N3CCC4(CC3)OCCO4)n2)cc1 = 14
• CN(C)CCN(C)C(=O)c1ccc(NC(=O)Nc2ccc(-c3nc(N4CCCCC4)nc(N4CCOCC4)n3)cc2)cc1 = 2.2
• CN1CCN(c2ccc(NC(=O)Nc3ccc(-c4nc(N5C[C@H]6C[C@@H]5CO6)nc(N5C[C@H]6C[C@@H]5CO6)n4)cc3)cc2)CC1 = 1820
• CCC(C)N1CCN(C(=O)c2ccc(NC(=O)Nc3ccc(-c4nc(N5CCOC[C@@H]5C)nc(N5CCOC[C@@H]5C)n4)cc3)cc2)CC1 (some centres unmarked) = 15
• O=C(Nc1ccncc1)Nc1ccc(-c2nc(N3CCNCC3)nc(N3CC4CCC(C3)O4)n2)cc1 = 115
• O=C(Nc1ccncc1)Nc1ccc(-c2nc(N3CCOCC3)nc(N3CCC4(CC3)OCCO4)n2)cc1 = 14
• COC(=O)c1ccc(NC(=O)Nc2ccc(-c3nc(C(C)C)nc(N4CCOCC4)n3)cc2)cc1 = 39
• CN(C)CCN(C)C(=O)c1ccc(NC(=O)Nc2ccc(-c3nc(NS(=O)(=O)c4ccccc4)nc(N4CCOCC4)n3)cc2)cc1 = 10.5
• CC(C)N1CCN(C(=O)c2ccc(NC(=O)Nc3ccc(-c4nc(N5CCOCC5)nc(N5CCOC[C@@H]5C)n4)cc3)cc2)CC1 = 2
• O=C(Nc1ccncc1)Nc1ccc(-c2nc(C3=CCOCC3)nc(N3CCOCC3)n2)cc1 = 5
• C[C@@H]1COCCN1c1nc(-c2ccc(NC(=O)Nc3ccc(N4CCC(N(C)C)CC4)cc3)cc2)nc(C2CCOCC2)n1 = 402

###

pIC50 values by entry
Target: Human mTOR (FLAG-TOR) (Homo sapiens)
Test: mTOR kinase assay (DELFIA format, purified enzyme)
Assay type: biochemical
Conditions: read-out: IC50 mTOR
pIC50: −log10 of the molar value.
property_name: pIC50

- CN(C)CCN(C)C(=O)c1ccc(NC(=O)Nc2ccc(-c3nc(C4CCOCC4)nc(N4C5CCC4COC5)n3)cc2)cc1 [Example 459]: 9.52
- CN(C)C(=O)c1ccc(NC(=O)Nc2ccc(-c3nc(C4CCOCC4)nc(N4C5CCC4COC5)n3)cc2)cc1 [Example 455]: 9.52
- COC(=O)c1ccc(NC(=O)Nc2ccc(-c3nc(C4=CCOCC4)nc(N4CCOCC4)n3)cc2)cc1 [Example 226]: 7.21
- NC(=O)c1ccc(NC(=O)Nc2ccc(-c3nc(Nc4ccc(N5CCNCC5)cc4)nc(N4CC5CCC(C4)O5)n3)cc2)cc1 [Example 329]: 9.17

###

Target: PI3K-α (Homo sapiens)
Experiment: PI3K-alpha fluorescence polarization assay
Details: read-out: IC50 PI3Kα
pIC50: −log10 of the molar value.
Returns one of 1 (yes) or 0 (no); 1 (yes) when pIC50 is >= 7.

* COCCNC(=O)c1ccc(NC(=O)Nc2ccc(-c3nc(-c4ccc(C)cc4)nc(N4CCOCC4)n3)cc2)cc1 | 1 (yes)
* C[C@@H]1COCCN1c1nc(-c2ccc(NC(=O)Nc3ccc(N4CCN(C)CC4)cc3)cc2)nc(N2CCOC[C@H]2C)n1 | 0 (no)
* CN(C)C1CCN(C(=O)c2ccc(NC(=O)Nc3ccc(-c4nc(N5CCOCC5)nc(N5C6COCC5COC6)n4)cc3)cc2)CC1 | 1 (yes)
* CCCCc1nc(-c2ccc(NC(=O)Nc3ccc(C(=O)NCCN(C)C)cc3)cc2)nc(N2CCOCC2)n1 | 1 (yes)
* O=C(Nc1ccc(O)cc1)Nc1ccc(-c2nc(N3CCOCC3)nc(N3CCOCC3)n2)cc1 | 1 (yes)
* CN(C)CCN(C)C(=O)c1ccc(NC(=O)Nc2ccc(-c3nc(N4CCCC4)nc(N4CCOCC4)n3)cc2)cc1 | 1 (yes)

###

Biological target: Human mTOR (FLAG-TOR) (Homo sapiens)
Assay: mTOR kinase assay (DELFIA format, purified enzyme)
Assay type: biochemical
Conditions: read-out: IC50 mTOR
pIC50: −log10 of the molar value.
pIC50 values for the compounds below.
property_name: pIC50

• CN1CCN(c2ccc(NC(=O)Nc3ccc(-c4nc(N5CCOCC5)nc(N5C6CCC5COC6)n4)cc3)cn2)CC1 = 8.88
• COCC(COC)Oc1nc(-c2ccc(NC(=O)NC3CC3)cc2)nc(N2CC3CCC(C2)O3)n1 = 7.85
• CN(C)CCCc1nc(-c2ccc(NC(=O)Nc3ccncc3)cc2)nc(N2CCOCC2)n1 = 7.23
• CN1CCN(CC(=O)Nc2ccc(NC(=O)Nc3ccc(-c4nc(N5C6CCC5COC6)nc(N5C6CCC5COC6)n4)cc3)cc2)CC1 = 9.85
